# MEASUREMENT_TARGET: fibrinogen (Bos taurus, UniProt P02672+P02676+P12799)
# Sequence (P02672 20-615): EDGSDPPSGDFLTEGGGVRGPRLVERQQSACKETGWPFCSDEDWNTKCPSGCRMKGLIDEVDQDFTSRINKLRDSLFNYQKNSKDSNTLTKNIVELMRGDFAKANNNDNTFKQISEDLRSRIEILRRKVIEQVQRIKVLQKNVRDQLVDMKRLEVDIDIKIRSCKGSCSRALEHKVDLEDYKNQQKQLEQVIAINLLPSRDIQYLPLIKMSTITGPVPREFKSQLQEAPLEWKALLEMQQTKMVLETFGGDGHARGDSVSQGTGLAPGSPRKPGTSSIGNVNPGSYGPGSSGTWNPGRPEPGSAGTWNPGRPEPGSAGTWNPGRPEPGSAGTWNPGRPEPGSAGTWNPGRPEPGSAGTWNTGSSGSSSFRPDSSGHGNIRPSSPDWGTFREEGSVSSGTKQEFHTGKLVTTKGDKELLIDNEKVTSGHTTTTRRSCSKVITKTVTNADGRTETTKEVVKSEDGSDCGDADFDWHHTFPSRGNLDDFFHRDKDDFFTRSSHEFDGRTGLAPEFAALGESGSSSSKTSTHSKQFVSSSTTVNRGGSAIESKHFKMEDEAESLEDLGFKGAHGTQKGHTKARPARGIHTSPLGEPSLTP
# Sequence (P02676 whole entry): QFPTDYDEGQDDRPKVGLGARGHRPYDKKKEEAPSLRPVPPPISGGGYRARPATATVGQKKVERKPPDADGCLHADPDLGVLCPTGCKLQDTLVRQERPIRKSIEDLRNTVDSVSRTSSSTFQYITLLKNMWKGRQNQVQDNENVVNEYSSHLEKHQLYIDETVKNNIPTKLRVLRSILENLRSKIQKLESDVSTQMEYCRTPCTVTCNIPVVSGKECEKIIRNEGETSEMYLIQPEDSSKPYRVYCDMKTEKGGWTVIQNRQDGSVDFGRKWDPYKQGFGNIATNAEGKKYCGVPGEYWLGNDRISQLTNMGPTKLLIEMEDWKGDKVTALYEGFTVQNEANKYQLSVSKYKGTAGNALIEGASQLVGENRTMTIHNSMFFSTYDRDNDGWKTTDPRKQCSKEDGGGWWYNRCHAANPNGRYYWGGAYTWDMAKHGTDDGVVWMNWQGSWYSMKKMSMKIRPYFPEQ
# Sequence (P12799 25-444): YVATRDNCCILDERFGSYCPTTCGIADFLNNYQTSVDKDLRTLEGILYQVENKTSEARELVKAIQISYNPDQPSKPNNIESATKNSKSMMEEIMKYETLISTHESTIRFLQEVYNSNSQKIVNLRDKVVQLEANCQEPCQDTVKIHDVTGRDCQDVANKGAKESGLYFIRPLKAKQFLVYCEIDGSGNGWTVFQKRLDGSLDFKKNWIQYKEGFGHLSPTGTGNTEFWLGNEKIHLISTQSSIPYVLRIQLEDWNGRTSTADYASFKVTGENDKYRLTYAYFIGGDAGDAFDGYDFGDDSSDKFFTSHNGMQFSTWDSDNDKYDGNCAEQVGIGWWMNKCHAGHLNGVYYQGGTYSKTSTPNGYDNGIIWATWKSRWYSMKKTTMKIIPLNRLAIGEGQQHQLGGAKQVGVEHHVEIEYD
# METHOD_SUMMARY: SPR adsorption of fibrinogen to SAMs / grafted polymer films
# Assay type: binding, bovine
# CONDITIONS_USED: mixed SAM —CONRR′/—CO2H; 1 mg/mL fibrinogen flowed 30 min
Classify by measured % MLfib 30 min: rule met if it is equal to or exceeds 40%, rule not met if it is smaller.

* CN1CCNCC1 | rule not met
* CNCCN(C)C(=O)OC | rule met
* N#CCNCC#N | rule met
* N#CCC(N)=C(C#N)C#N | rule met
* Nc1ccc(O[C@@H]2O[C@H](CO)[C@H](O)[C@H](O)[C@H]2O)cc1 | rule met
* CN(C)C(=O)CN | rule not met
* CNCCN(C)P(=O)(N(C)C)N(C)C | rule not met
* CNCCN(C)C(=O)N(C)C | rule not met
* NC[C@H](O)[C@H](O)[C@H](O)[C@@H](O)CO | rule met
* CNCCNC | rule not met
* CC(=O)N1CCNCC1 | rule not met
* N#CCCNCCC#N | rule met
* N[C@H]1C(O)O[C@H](CO)[C@@H](O)[C@@H]1O (stereo partly drawn) | rule met
* NCC1COCCOCCOCCOCCOCCO1 (stereo not drawn) | rule met

###

Consider the following compounds and their measured % Lysoff (percent decrease in adsorbed protein during 10 minute PBS wash) readings.
# MEASUREMENT_TARGET: lysozyme (Gallus gallus)
# METHOD_SUMMARY: SPR adsorption of lysozyme to SAMs / grafted polymer films
# Format: binding
# CONDITIONS_USED: mixed SAM —CONRR′/—CO2H
Where a SMILES comes first, the peptide text is derived from it. [ ]: non-standard residue; d: D form. Sar = CNCC(=O)O
PROPERTY: % Lysoff (percent decrease in adsorbed protein during 10 minute PBS wash) (%)

• CC(=O)CCN = 150
• CC(=O)NCCN = 580
• CNCCNC = 110
• CNCC(=O)N(C)CC(=O)N(C)CC(=O)N(C)CC(=O)N(C)C [H(CH3)N(Sar)4N(CH3)2] (H-[Sar][Sar][Sar][Sar]-NMe2) = 70
• CNC[C@H](OC)[C@H](OC)[C@H](OC)[C@H](COC)OC = 17
• Nc1ccc(O[C@@H]2O[C@H](CO)[C@H](O)[C@H](O)[C@H]2O)cc1 = 254
• Nc1ccc(O[C@@H]2O[C@H](CO)[C@@H](O)[C@H](O)[C@H]2O)cc1 = 78
• N[C@H]1C(O)O[C@H](CO)[C@@H](O)[C@@H]1O (some centres unmarked) = 330
• N#CCCNCCC#N = 290
• C[N+](C)(C)CCN.[Cl-] = 95
• NC(CCCO)(CCCO)CCCO = 140
• N#CCNCC#N = 110
• O=CN1CCNCC1 = 73
• CNCCN(C)P(=O)(N(C)C)N(C)C = 660

###

# MEASUREMENT_TARGET: lysozyme (Gallus gallus, UniProt P00698)
# Sequence (P00698 19-147): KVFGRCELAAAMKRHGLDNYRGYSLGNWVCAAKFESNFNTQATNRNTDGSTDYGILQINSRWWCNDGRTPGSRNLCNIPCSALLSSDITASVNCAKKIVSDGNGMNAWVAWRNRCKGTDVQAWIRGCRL
# METHOD_SUMMARY: SPR adsorption of lysozyme to SAMs / grafted polymer films
# Format: binding
# CONDITIONS_USED: mixed SAM —CONRR′/—CO2H
Where a SMILES comes first, the peptide text is derived from it. [ ]: non-standard residue; d: D form. Sar = CNCC(=O)O
Respond with condition met for dR/dton lysozyme (maximum initial rate of adsorption) values of 70 RU/sec and above, condition not met for values below.

• CNCC(=O)N(C)CC(=O)N(C)CC(=O)N(C)CC(=O)N(C)C [H(CH3)N(Sar)4N(CH3)2] (H-[Sar][Sar][Sar][Sar]-NMe2) = condition met
• OCCOCCN1CCNCC1 = condition not met
• O=CN1CCNCC1 = condition met
• CC(=O)CCN = condition met

Sourced from patent US7494714B2
